- study system: T1, His-tagged ILT4 protein extracellular domain: ILT4-His (human, UniProt Q8N423 22-460)
- T1 construct: Expressed in 293 cells; also called human ILT4-His protein
- T1 sequence (Q8N423 other isoform, or with tags, fused parts or gaps limits assumed): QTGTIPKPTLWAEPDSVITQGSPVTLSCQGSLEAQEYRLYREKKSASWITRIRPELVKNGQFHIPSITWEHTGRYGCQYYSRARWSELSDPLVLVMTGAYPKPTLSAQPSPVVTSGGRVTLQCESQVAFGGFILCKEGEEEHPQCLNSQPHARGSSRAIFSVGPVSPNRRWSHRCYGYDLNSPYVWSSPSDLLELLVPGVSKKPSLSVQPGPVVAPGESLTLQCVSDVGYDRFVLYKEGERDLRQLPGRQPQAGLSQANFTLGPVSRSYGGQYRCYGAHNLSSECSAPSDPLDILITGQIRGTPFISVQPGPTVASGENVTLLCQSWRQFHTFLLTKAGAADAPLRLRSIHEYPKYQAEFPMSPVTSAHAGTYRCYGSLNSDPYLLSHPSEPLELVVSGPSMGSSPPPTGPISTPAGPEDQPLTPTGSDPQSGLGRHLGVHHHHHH
- experiment: SPR (Biacore), antibody captured on Protein A chip, ILT4-His as analyte, 1:1 model
measurement label: Kd (nM)
Respond numerically; units are nM and should not be typed.

## Input Endpoint output: Kd of humanized antibody huP2-E3 (antibody, human IgG4 S228P, kappa, F234A L235A, V domains shown, Full chains; The constant region is hIgG1(LALA) or hIgG4(LALA) with a kappa CL; also called P2-E3H6L2) VH: EVQLVQSGAEVKKPGASVKVSCKASGYTFTDYYMNWVKQAPGQRLEWMGDINPNSGGTSYNQKFKGRVTITVDKSGSTAYMELSSLRSEDTAVYYCARGGVTTVVATYWYFDVWGQGTTVTVSS VL: DIQMTQSPSSLSASVGDRVTITCRASENIYSNLAWYQQKPGKSPKLLVYAATNVADGVPSRFSGSGSGTDYTLTISSLQPEDFATYYCQQFWDTPFTFGQGTKLEIKR . Value?
## Output 1.26

Others:
## Input Endpoint output: Kd of humanized antibody huP1-D7 (antibody, human IgG4 S228P, kappa, F234A L235A, V domains shown, Full chains; also called P1-D7H1L1) VH: EVQLVQSGAEVKKPGASVKVSCKASGYTFTTYGMNWVRQAPGQGLEWMGWINTYSGVPTYAEDFKGRVTMTTDTSTSTAYMELRSLRSDDTAVYYCARRTDYDGYVMDSWGQGTTVTVSS VL: DIVMTQSPDSLAVSLGERATINCKSSQSLFYSGNQKNYLAWYQQKPGQSPKLLLYWASTRESGVPDRFSGSGSGTDFTLTISSLQAEDVAVYYCQQYFSYPPTFGGGTKVEIKR . Value?
## Output 3.98

## Input Endpoint output: Kd of humanized antibody huP2-E8 (antibody, human IgG4 S228P, kappa, F234A L235A, V domains shown, Full chains; also called P2-E8H4L1) VH: EVQLVESGGGLVKPGGSLRLSCAASGFTFSDYGIHWVRQAPGKGLEWVAYISSGSSIHNYADTVKGRFTISRDNAKNSLYLQMNSLRAEDTAVYYCARGPNYYGSSYLLVYWGQGTLVTVSS VL: DIQMTQSPSSLSASVGDRVTITCKASQDVNIAVAWYQQKPGKAPKLLIYSASYRYTGVPSRFSGSGSGTDFTFTISSLQPEDIATYYCQQHYNIPWTFGGGTKVEIKR . Value?
## Output 0.839
